Molecular target: DGKζ (Homo sapiens (Human))
Sequence (Q13574 other isoform, or with tags, fused parts or gaps): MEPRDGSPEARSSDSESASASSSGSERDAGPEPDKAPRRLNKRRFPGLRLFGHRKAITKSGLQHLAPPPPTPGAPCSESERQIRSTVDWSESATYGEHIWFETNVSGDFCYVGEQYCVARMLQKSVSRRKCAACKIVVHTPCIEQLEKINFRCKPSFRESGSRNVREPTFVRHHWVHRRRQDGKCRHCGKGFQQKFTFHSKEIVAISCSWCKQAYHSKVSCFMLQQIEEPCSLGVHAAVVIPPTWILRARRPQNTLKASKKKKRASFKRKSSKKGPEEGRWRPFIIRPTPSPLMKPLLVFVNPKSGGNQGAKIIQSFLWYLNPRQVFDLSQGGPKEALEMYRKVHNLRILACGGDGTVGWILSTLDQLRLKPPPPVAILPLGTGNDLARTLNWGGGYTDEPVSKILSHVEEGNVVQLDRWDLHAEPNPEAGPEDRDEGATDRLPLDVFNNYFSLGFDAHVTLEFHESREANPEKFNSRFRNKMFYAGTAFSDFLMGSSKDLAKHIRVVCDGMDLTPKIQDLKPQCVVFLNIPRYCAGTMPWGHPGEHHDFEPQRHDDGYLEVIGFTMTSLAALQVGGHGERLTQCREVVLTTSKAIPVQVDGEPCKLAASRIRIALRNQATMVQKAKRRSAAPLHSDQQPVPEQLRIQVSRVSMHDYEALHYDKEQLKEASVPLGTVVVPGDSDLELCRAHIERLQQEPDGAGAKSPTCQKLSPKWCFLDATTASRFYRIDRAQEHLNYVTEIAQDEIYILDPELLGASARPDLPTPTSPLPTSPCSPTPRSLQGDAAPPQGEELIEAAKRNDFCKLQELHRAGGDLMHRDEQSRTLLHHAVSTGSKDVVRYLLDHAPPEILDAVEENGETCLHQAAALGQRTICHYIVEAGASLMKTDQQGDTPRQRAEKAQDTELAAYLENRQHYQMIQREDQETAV
Assay: Biochemical DGK IC50 assay (ADP-Glo, lipid micelle substrate), DGKζ
Conditions: full length DGKζ 0.5 nM, ATP 140 μM, DAG 80 μM
Procedure: Enzymatic reactions of DGKζ, DGKα and DGKδ were performed using ADP-Glo assay with lipid micelle substrate. […] Full length DGKα (D21-10BG, SignalChem) and full length DGKδ (D23-10G, SignalChem) were purchased. Lipid micelle was prepared by dissolving DAG (Sigma, 317505-10MG) and PS (Sigma, P7769-100MG) with chloroform which was furtherly removed by rotary evaporation. […]
pIC50: −log10 of the molar value.
observation type: pIC50

Solved entries (count: 5):
// field: pIC50; key: CC[C@H]1CN(C(C)c2ccc3nc(COC)sc3c2)[C@H](CC)CN1c1cc(=O)n(C)c2cn(CC#N)nc12 (single isomer, unassigned) [Compound A145a] ; value = 7.33

Record summary for CC#CCn1cc2c(n1)c(N1C[C@@H](CC)N(C(C)c3ccc4nc(C)sc4c3F)C[C@@H]1CC)cc(=O)n2C (single isomer, unassigned) [Compound A138b] : reported pIC50 = 5.48

Lab note: measured pIC50 of CC[C@H]1CN(C(C)c2ccn3ncc(F)c3c2)[C@H](CC)CN1c1cc(=O)n(C)c2cn(CC#N)nc12 (single isomer, unassigned) [Compound A165b] was 5.80

GET /value?item= [2H]C([2H])([2H])C(c1ccc2nc(C)sc2n1)N1C[C@H](CC)N(c2cc(=O)n(C([2H])([2H])[2H])c3cn(CC#N)nc23)C[C@H]1CC (single isomer, unassigned) [Compound A142b] &field=pIC50 returns 7.70

Value of pIC50 reported for the compound CC[C@@H]1CN(c2cc(=O)n(C)c3cn(CC#N)nc23)[C@@H](C)CN1C(C)c1ccc2cc(F)sc2n1 (stereo partly shown) [Compound A132] is 6.86

(P) CC[C@H]1CN(C(C)c2ccc3nc(COC)sc3c2)[C@H](CC)CN1c1cc(=O)n(C)c2cn(CC#N)nc12 (single isomer, unassigned) [Compound A145b]
(Q) CC[C@H]1CN(C(C)c2ccc3c(n2)OCO3)[C@H](CC)CN1c1cc(=O)n(C)c2cn(CC#N)nc12 (single isomer, unassigned) [Compound A75a]
Query: // max by pIC50 over [ P , Q ] Refer to your chosen entry by its label in the reply.
Reply: Q
(Q: 6.86, P: 6.03)

----------
IC50, DGKα (Homo sapiens (Human), UniProt P23743): measured values
observation type: IC50 (nM)

For CC[C@H]1CN(C(C)c2ccc3ncsc3n2)[C@H](CC)CN1c1nc(=O)n(C)c2cn(CC#N)nc12 (single isomer, unassigned) [Compound A126a] the compound record lists IC50 as 1370

(1) CC[C@H]1CN(C(C)c2ccc(CN3CCC(OC)C3)cc2)[C@H](CC)CN1c1cc(=O)n(C)c2cn(CC#N)nc12 (single isomer, unassigned) [Compound A203b]
(2) CCC(c1ccc(C(F)(F)F)cc1)N1C[C@H](CC)N(c2cc(=O)n(C)c3cn(CC#N)nc23)C[C@H]1CC (single isomer, unassigned) [Compound A135b]
(3) CC[C@H]1CN(C(C)c2ccc(C3CC3)nc2)[C@H](CC)CN1c1cc(=O)n(C)c2cn(CC3COC3)nc12 (stereo partly drawn) [Compound A122]
(4) CC[C@H]1CN(C(C)c2ccc(C)c(C)n2)[C@H](CC)CN1c1cc(=O)n(C)c2cn(CC#N)nc12 (single isomer, unassigned) [Compound A54a]
(5) CC[C@H]1CN(C(C)c2ccc(C(=O)NC)cc2)[C@H](CC)CN1c1cc(=O)n(C)c2cn(CC#N)nc12 (single isomer, unassigned) [Compound A193b]
Query: Put the entries in order of IC50, starting with the largest number. In plain terms: list the labels in the order you were asked to.
Reply: 3, 1, 5, 2, 4

----------
molecular target: DGKα (Homo sapiens (Human), UniProt P23743); assay: Biochemical DGK IC50 assay (ADP-Glo, lipid micelle substrate), DGKα; settings: full length DGKα […], ATP 140 μM, DAG 80 μM; also: full length DGKα 7.5 nM
Sequence (P23743 whole entry): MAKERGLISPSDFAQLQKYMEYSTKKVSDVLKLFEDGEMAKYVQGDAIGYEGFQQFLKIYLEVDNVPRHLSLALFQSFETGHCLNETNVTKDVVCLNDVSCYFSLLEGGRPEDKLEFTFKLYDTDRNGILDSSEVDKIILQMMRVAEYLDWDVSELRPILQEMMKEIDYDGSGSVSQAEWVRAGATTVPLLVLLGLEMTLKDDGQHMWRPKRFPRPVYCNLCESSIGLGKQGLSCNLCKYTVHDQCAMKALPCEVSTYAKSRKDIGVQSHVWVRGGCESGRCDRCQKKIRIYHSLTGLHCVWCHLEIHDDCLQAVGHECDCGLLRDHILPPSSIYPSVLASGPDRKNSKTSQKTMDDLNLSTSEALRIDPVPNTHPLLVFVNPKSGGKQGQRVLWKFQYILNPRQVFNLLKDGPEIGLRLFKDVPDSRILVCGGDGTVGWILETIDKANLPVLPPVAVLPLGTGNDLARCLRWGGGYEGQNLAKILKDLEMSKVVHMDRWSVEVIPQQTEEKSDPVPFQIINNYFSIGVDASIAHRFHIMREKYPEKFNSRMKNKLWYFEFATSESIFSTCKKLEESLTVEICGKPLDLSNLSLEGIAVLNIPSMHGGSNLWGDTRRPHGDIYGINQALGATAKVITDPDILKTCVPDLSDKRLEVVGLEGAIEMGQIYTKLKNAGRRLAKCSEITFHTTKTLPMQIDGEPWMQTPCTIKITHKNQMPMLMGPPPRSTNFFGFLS
pIC50: −log10 of the molar value.
observation type: pIC50

// pIC50 value for CC[C@H]1CN(C(C)c2ccn3nc(C)c(C)c3n2)[C@H](CC)CN1c1cc(=O)n(C)c2cn(CC#N)nc12 (single isomer, unassigned) [Compound A156b] : 6.51

For CC[C@H]1CN(C(C)c2ccc3scnc3c2F)[C@H](CC)CN1c1cc(=O)n(C)c2cn(CC#N)nc12 (single isomer, unassigned) [Compound A110a] the compound record lists pIC50 as 6.33

pIC50 for CC[C@H]1CN(C(C)c2ccc3ncoc3c2)[C@H](CC)CN1c1cc(=O)n(C)c2cn(CC#N)nc12 (single isomer, unassigned) [Compound A84a] is 7.17

(1) CC[C@H]1CN(C(C)c2ccc(OC3COC3)c(F)c2)[C@H](CC)CN1c1cc(=O)n(C)c2cn(CC#N)nc12 (single isomer, unassigned) [Compound A23b]
(2) CC#CCn1cc2c(n1)c(N1C[C@@H](CC)N(C(C)c3ccc(C4CC4)nc3)C[C@@H]1CC)cc(=O)n2C (single isomer, unassigned) [Compound A39b]
Query: Please indicate which item has the smaller measured pIC50: 1 versus 2 Write down the label of the entry you select.
Reply: 2
(2: 6.63, 1: 6.86)

----------
pIC50: −log10 of the molar value.
Below are compounds with their pIC50 as measured on DGKζ (Homo sapiens (Human)).
observation type: pIC50

Below, each entry is followed by its recorded pIC50 result.
pIC50 reported for this compound CC[C@H]1CN(C(C)c2ccc(OC(F)F)cc2)[C@H](CC)CN1c1cc(=O)n(C)c2cn(CC#N)nc12 (single isomer, unassigned) [Compound A19a] : 6.89

// pIC50 value for CC[C@H]1CN(C(C)c2ccc3ccnn3c2)[C@H](CC)CN1c1cc(=O)n(C)c2cn(CC#N)nc12 (single isomer, unassigned) [Compound A77b] : 6.07

Reported pIC50 for CC(c1ccc2c(c1)OC(C)(C)O2)N1C[C@H](C)N(c2cc(=O)n(C)c3cn(CC#N)nc23)C[C@H]1C (stereo partly drawn) was 7.51

The recorded pIC50 for entry CC[C@H]1CN(C(C)c2ccc3ncc(F)n3n2)[C@H](CC)CN1c1cc(=O)n(C)c2cn(CC#N)nc12 (single isomer, unassigned) [Compound A168a] equals 5.44

(P) CC[C@H]1CN(C(C)c2ccc3cnncc3c2)[C@H](CC)CN1c1cc(=O)n(C)c2cn(CC#N)nc12 (single isomer, unassigned) [Compound A186a]
(Q) CC#CCn1cc2c(n1)c(N1C[C@@H](CC)N(C(C)c3ccc(C4CC4)nc3)C[C@@H]1CC)cc(=O)n2C (single isomer, unassigned) [Compound A39a]
Query: Between P and Q , whose recorded pIC50 is greater? Your answer should be the label of the entry you select.
Reply: Q

----------
Target or system DGKα (Homo sapiens (Human), UniProt P23743): recorded IC50 listed per item.
observation type: IC50 (nM)

(A) CC[C@H]1CN(C(C)c2ccc3ccsc3c2)[C@H](CC)CN1c1cc(=O)n(C)c2cn(CC#N)nc12 (stereo partly drawn)
(B) CC[C@H]1CN(C(C)c2ccc3nccn3c2)[C@H](CC)CN1c1cc(=O)n(C)c2cn(CC#N)nc12 (single isomer, unassigned) [Compound A82b]
Query: Looking only at measured IC50, which entry is lower, A or B ? Record your answer as the label of the chosen record.
Reply: A
(A: 28 nM, B: 3050 nM)

----------
# pIC50 measurements, system: DGKα (Homo sapiens (Human), UniProt P23743)
pIC50: −log10 of the molar value.
observation type: pIC50

Worked cases, pIC50 given:
Tested on DGKα (Homo sapiens (Human), UniProt P23743): CC[C@H]1CN(C(C)c2ccn3nccc3c2)[C@H](CC)CN1c1nc(=O)n(C)c2cn(CC#N)nc12 (single isomer, unassigned) [Compound A159a] . Observed pIC50: 7.42

Tested on DGKα (Homo sapiens (Human), UniProt P23743), the item CC#CCn1cc2c(n1)c(N1C[C@@H](CC)N(C(C)c3ccc4nc(C)sc4c3)C[C@@H]1CC)cc(=O)n2C (single isomer, unassigned) [Compound A114a] showed pIC50 equal to 7.49

Observed pIC50 on DGKα (Homo sapiens (Human), UniProt P23743), entry CC[C@H]1CN(C(C)c2ccc(C3CC3)nc2)[C@H](CC)CN1c1nc(=O)n(C)c2cn(CC#N)nc12 (single isomer, unassigned) [Compound A127b] , equals 5.47

DGKα (Homo sapiens (Human), UniProt P23743) data for CC[C@H]1CN(C(C)c2ccc3nc(C)sc3n2)[C@H](CC)CN1c1nc(=O)n(C)c2cn(CC#N)nc12 (single isomer, unassigned) [Compound A129b] ; its pIC50: 6.72

(A) CC[C@H]1CN(C(C)c2ccc3nc(OCCF)sc3n2)[C@H](CC)CN1c1cc(=O)n(C)c2cn(CC#N)nc12 (single isomer, unassigned) [Compound A147b]
(B) CC[C@H]1CN(C(C)c2ccc3nc(C)sc3n2)[C@H](CC)CN1c1cc(=O)n(C)c2cn(CC#N)nc12 (single isomer, unassigned) [Compound A133a]
(C) CC[C@H]1CN(C(C)c2ccc3ncsc3c2)[C@H](CC)CN1c1nc(=O)n(C)c2cn(CC#N)nc12 (stereo partly shown)
(D) CC[C@H]1CN(C(C)c2ccc(CN3CC(F)(F)C3)cc2)[C@H](CC)CN1c1cc(=O)n(C)c2cn(CC#N)nc12 (stereo partly shown)
(E) CC[C@H]1CN(C(C)c2ccc3ccnn3c2)[C@H](CC)CN1c1cc(=O)n(C)c2cn(CC#N)nc12 (single isomer, unassigned) [Compound A77b]
Query: Returns the items ordered by pIC50, from maximum to minimum. Write out the labels following the order that was asked for.
Reply: D, C, E, A, B

(A) CC[C@H]1CN(C(C)c2ccc(C)c(C)n2)[C@H](CC)CN1c1cc(=O)n(C)c2cn(CC#N)nc12 (single isomer, unassigned) [Compound A54b]
(B) CC[C@H]1CN(C(C)c2ccc3nsnc3c2)[C@H](CC)CN1c1cc(=O)n(C)c2cn(CC#N)nc12 (single isomer, unassigned) [Compound A106a]
Query: Record comparison, field pIC50: mark the lower of A and B . Output the label that corresponds to your choice.
Reply: A

(P) CC[C@H]1CN(C(C)c2ccc(CN3CCC(OC)C3)cc2)[C@H](CC)CN1c1cc(=O)n(C)c2cn(CC#N)nc12 (single isomer, unassigned) [Compound A203a]
(Q) CC[C@H]1CN(C(C)c2ccc3ncc(Cl)n3n2)[C@H](CC)CN1c1nc(=O)n(C)c2cn(CC#N)nc12 (single isomer, unassigned) [Compound A174a]
Query: Lab note: record which item had the higher pIC50, P or Q . Output the label that corresponds to your choice.
Reply: P

The reported numbers originate from patent US20250346597A1.
